Kd values, listed per item
Target: T1, recombinant human BCMA-his fusion protein (ACRO Biosystem, Cat. No. BCA-H522y) (human, UniProt Q02223 1-54)
T1 construct: extracellular domain; Bought protein; also called huBCMA-his; hu BCMA-his; not shown: His tag
T1 sequence (looked up): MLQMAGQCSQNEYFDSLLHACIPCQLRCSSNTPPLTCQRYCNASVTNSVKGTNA
Test: SPR (Biacore T200), anti-His capture on CM5, 1:1 fit
Enter your answer as a number in nM; do not include the unit.

Sample answers from the record:
[
  {
    "binder": "humanized antibody hu-mAb3 (VH3+VL3) (antibody, V domains shown, human IgG1/kappa named only as preferred) VH: QVQLVQSGAEVKKPGASVKVSCKASGYTITDYNMDWVRQAPGQGLEWIGNINPHNGGSIYNQKFQGRATLTVDKSTSTAYMELSSLRSEDTAVYYCARGDATLVLDYWGQGTTVTVSS VL: DIQLTQSPSSLSASVGDRATITCRASKSVSTSGLSYMHWYQQKPGKAPKVLIYLASNLESGVPARFSGSGSGTDFTLTISSVQPEDFATYYCQHSRELPPTFGQGTKLELK",
    "Kd / nM": 0.399
  },
  {
    "binder": "human-mouse chimeric antibody c-mAb2 (antibody, human IgG1, V domains shown, not shown: human IgG1 heavy chain constant region, GenBank No. AK303185.1; human kappa light chain constant region, GenBank No. MG815648.1) VH: QVQLQQSDAELVKPGTSVKISCKVSGYTFTDHTIHWMKQRPEQGLEWIGYIYPRNGNTKYNEKFKGKATLTADKSSSTAYMHLNSLTSEDSAVYFCARYDYDGYFDVWGTGTTVTVSS VL: DVVMTQTPLSLPVSLGDQASISCRSSQSHVHSDGHTYLHWYLQKPGQSPELLIYKVSNRFSGVPDRFSGSGSGTDFTLKISRVEAEDLGVYFCSQNTHFPWTFGGGTKLEIK",
    "Kd / nM": 1.45
  },
  {
    "binder": "human-mouse chimeric antibody c-mAb3 (antibody, human IgG1, V domains shown, not shown: human IgG1 heavy chain constant region, GenBank No. AK303185.1; human kappa light chain constant region, GenBank No. MG815648.1) VH: EVQLQQSGPELVKPGASVKILCKASGYTITDYNMDWVKRSHGKSLEWIGNINPHNGGSIYNQKFKGKATLTVDKSSSTAFMELRSLTSEDTAVYYCARGDATLVLDYWGQGTSLTVSS VL: DIVLTQSPASLAVSLGQRATISCRASKSVSTSGLSYMHWYQQKPGQPPKVLIYLASNLESGVPARFSGSGSGTDFTLNIHPVEEEDAATYYCQHSRELPPTFGAGTKLELK",
    "Kd / nM": 0.38
  }
]

Exercise: Return Kd (reported value) for this binder: human-mouse chimeric antibody c-mAb1 (antibody, human IgG1, V domains shown, not shown: human IgG1 heavy chain constant region, GenBank No. AK303185.1; human kappa light chain constant region, GenBank No. MG815648.1) VH: EVQLQQSGPELVKPGTSVEMSCKASGYTFTDYNIHWVRQRHGESLEWLGYINPNNGVTNFNQKFKGKATLTVNKSSSTAYMELRSLTSDDSAVYYCSSGLFDGYPFPYWGQGTLVTVSA VL: DIVLTQSPASLVVSLGQRATISCRASKSVSTSGYNYIHWYQQKPGQPPKLLIFLASNLKSGVPARFSGGGSGTDFTLNIHPVEEDDAATYFCQHNRELPYTFGGGTKVEIK
Solution: 0.247

Exercise: Identify Kd associated with the binder humanized antibody hu-mAb2 (VH2+VL2) (antibody, V domains shown, human IgG1/kappa named only as preferred) VH: QVQLVQSGAEVKKPGSSVKVSCKVSGYTFTDHTIHWMKQAPGQGLEWIGYIYPRNGNTKYNEKFKGKATLTADKSTSTAYMELSSLRSEDTAVYFCARYDYDGYFDVWGQGTLVTVSS VL: DVVMTQTPLSLSVTPGQPASISCRSSQSHVHSDGHTYLHWYLQKPGQSPELLIYKVSNRFSGVPDRFSGSGSGTDFTLKISRVEAEDVGVYFCSQNTHFPWTFGGGTKVEIK
Solution: 1.15
